The measured values listed here are drawn from ChEMBL document CHEMBL4270510.

# Tested on: THP-1
# measurementProtocol: Inhibition of LPS-induced TNFalpha production in PMA-treated human THP1 cells at 5 uM after 24 hrs by ELISA relative to total protein level (reference value: 6.04 +/- 0.54)
# Type: cell-based
# cond: thp-1, 24 h
recordedEndpoint: fold change (FC)

c1ccc(N2O[C@H](c3ccncc3)C[C@@H]2c2c[nH]c3ccccc23)cc1 (racemic) :: 3.92
CCCCOC(=O)[C@H]1CON(c2ccccc2)[C@H]1c1c[nH]c2ccccc12 (racemic) :: 2.59
O=C1NC(=O)[C@H]2ON(c3ccccc3)[C@H](c3c[nH]c4ccccc34)[C@@H]12 (racemic) :: 4.28

Query: Using the record for Cc1ccc([C@@H]2C[C@H](c3c[nH]c4ccccc34)N(c3ccccc3)O2)cc1 (racemic) , report its fold change (FC).
Result: 4.58

Query: Using the record for CCCCOC(=O)[C@@H]1C[C@H](c2c[nH]c3ccccc23)N(c2ccccc2)O1 (racemic) , report its fold change (FC).
Result: 3.98

Query: Using the record for CCOC(=O)[C@@H]1C[C@H](c2c[nH]c3ccccc23)N(c2ccccc2)O1 (racemic) , report its fold change (FC).
Result: 7.77

Query: Using the record for CCOC(=O)[C@@H]1[C@@H](C)ON(c2ccccc2)[C@H]1c1c[nH]c2ccccc12 (racemic) , report its fold change (FC).
Result: 3.98

====

# System: THP-1
# measurementProtocol: Cytotoxicity against human THP1 cells assessed as decrease in cell growth after 48 hrs by MTT assay
# Format: cell-based
# cond: THP-1, 48 h
Let's look at some molecules and their measured pIC50.
Quick note: pIC50 means taking -log10 of the concentration in moles per liter.

Query: pIC50 of O=C1[C@H]2[C@H](ON(c3ccccc3)[C@@H]2c2c[nH]c3ccccc23)C(=O)N1Cc1ccccc1 (racemic) on THP-1?
Result: 4.06

Query: pIC50 of O=C1[C@H]2[C@H](ON(c3ccccc3)[C@@H]2c2c[nH]c3ccccc23)C(=O)N1c1ccccc1 (racemic) on THP-1?
Result: 4.11

Query: pIC50 of C[C@@]1(c2ccccc2)C[C@H](c2c[nH]c3ccccc23)N(c2ccccc2)O1 (racemic) on THP-1?
Result: 4.13

====

# Test system: THP-1
# measurementProtocol: Cytotoxicity against human THP1 cells assessed as decrease in cell growth after 24 hrs by MTT assay
# Format: cell-based
# cond: THP-1, 24 h
pIC50: −log10 of the molar value.
Let's look at some compounds and their measured pIC50.

A selection of reference data follows.
O=C1[C@H]2[C@H](ON(c3ccccc3)[C@@H]2c2c[nH]c3ccccc23)C(=O)N1Cc1ccccc1 (racemic) :: < 4.00
C[C@@]1(c2ccccc2)C[C@H](c2c[nH]c3ccccc23)N(c2ccccc2)O1 (racemic) :: < 4.00

Here's the next entry for you.
Query: Using the record for O=C1[C@H]2[C@H](ON(c3ccccc3)[C@@H]2c2c[nH]c3ccccc23)C(=O)N1c1ccccc1 (racemic) , report its pIC50.
Result: < 4.00

====

# Tested on: THP-1
# measurementProtocol: Inhibition of LPS-induced TNFalpha production in PMA-treated human THP1 cells at 5 uM after 24 hrs by ELISA relative to total protein level (reference value: 6.04 +/- 0.54)
# Format: cell-based
# cond: thp-1, 24 h
Kindly return class 1 if reported fold change (FC) is no lower than 3; return class 0 if it is lower.

CCOC(=O)[C@H]1CON(c2ccccc2)[C@H]1c1c[nH]c2ccccc12 (racemic) :: class 1
COC(=O)[C@@H]1C[C@H](c2c[nH]c3ccccc23)N(c2ccccc2)O1 (racemic) :: class 1
c1ccc([C@@H]2C[C@H](c3c[nH]c4ccccc34)N(c3ccccc3)O2)cc1 (racemic) :: class 1
C[C@@]1(c2ccccc2)C[C@H](c2c[nH]c3ccccc23)N(c2ccccc2)O1 (racemic) :: class 0
CCN1C(=O)[C@H]2[C@H](ON(c3ccccc3)[C@@H]2c2c[nH]c3ccccc23)C1=O (racemic) :: class 0

Query: Hello, I need to know if O=C1[C@H]2[C@H](ON(c3ccccc3)[C@@H]2c2c[nH]c3ccccc23)C(=O)N1c1ccccc1 (racemic) has measured fold change (FC) not below 3. Thanks!
Result: class 0

Query: Hello, I need to know if O=C1[C@H]2[C@H](ON(c3ccccc3)[C@@H]2c2c[nH]c3ccccc23)C(=O)N1Cc1ccccc1 (racemic) has measured fold change (FC) not below 3. Thanks!
Result: class 0
